Would you mind telling me the reported ID/g of each entry?
# Test system: Rattus norvegicus
# EXPERIMENT: Biodistribution in lungs of immature female rat after 1 hr administration of 3 micro Ci (111 kBq) in the absence of 60 microg estradiol
# Type: ADME, organism-based, Lung
# ASSAY_SETUP: in vivo
Quick reminder: number only, in %, skip the unit.

Asked: May I ask what ID/g has been recorded for CO[C@H]1C[C@@]2(C)[C@@H](CC[C@@]2(O)/C=C\I)[C@@H]2CCc3c(ccc(O)c3F)[C@H]21 ?
Given back: 0.84

Asked: State the recorded ID/g for this entry: CO[C@H]1C[C@@]2(C)[C@@H](CC[C@@]2(O)/C=C/I)[C@@H]2CCc3cc(O)c(F)cc3[C@H]21
Given back: 0.95

Asked: Query (molecule): C[C@@H]1Cc2c(ccc(O)c2F)[C@H]2CC[C@@]3(C)[C@@H](CC[C@@]3(O)/C=C\I)[C@H]12 ; field requested: ID/g
Given back: 0.71

Asked: Could you tell me which ID/g is on file for C[C@]12CC[C@@H]3c4ccc(O)c(F)c4CC[C@H]3[C@@H]1CC[C@@]2(O)/C=C\I ?
Given back: 1.89
